Target: ERBB2 (Homo sapiens, UniProt P04626)
Construct: host or cells: HEK296T (so in the source)
Sequence (P04626 23-1255): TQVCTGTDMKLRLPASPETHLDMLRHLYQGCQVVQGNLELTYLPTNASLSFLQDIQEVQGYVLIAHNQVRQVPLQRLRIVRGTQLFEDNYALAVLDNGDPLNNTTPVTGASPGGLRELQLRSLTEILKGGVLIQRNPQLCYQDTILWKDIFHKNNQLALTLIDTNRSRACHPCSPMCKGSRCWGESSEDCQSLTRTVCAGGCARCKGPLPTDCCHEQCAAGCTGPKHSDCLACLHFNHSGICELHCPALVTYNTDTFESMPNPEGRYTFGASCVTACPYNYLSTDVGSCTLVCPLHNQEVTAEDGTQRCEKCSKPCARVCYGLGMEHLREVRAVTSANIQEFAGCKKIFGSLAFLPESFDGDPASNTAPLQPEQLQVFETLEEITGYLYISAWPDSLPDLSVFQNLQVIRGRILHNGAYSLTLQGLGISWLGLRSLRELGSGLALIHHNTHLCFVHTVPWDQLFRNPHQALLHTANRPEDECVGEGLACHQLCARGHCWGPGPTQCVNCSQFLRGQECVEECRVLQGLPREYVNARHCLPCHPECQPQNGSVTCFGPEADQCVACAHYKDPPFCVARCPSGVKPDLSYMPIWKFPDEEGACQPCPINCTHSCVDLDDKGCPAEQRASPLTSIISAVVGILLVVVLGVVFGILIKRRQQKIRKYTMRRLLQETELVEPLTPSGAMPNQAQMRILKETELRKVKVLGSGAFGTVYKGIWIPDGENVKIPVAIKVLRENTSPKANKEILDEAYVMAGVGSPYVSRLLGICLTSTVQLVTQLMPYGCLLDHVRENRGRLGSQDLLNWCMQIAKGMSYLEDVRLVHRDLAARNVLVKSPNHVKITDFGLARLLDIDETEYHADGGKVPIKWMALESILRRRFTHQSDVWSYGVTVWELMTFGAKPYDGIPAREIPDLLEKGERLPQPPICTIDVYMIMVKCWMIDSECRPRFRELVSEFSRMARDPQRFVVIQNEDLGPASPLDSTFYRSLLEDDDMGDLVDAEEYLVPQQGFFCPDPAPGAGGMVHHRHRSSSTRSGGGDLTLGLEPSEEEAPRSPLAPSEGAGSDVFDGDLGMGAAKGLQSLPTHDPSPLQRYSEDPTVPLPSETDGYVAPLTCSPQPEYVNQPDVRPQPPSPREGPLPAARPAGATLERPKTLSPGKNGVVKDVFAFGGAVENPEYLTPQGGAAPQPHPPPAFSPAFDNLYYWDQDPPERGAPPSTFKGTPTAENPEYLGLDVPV
Assay: NanoBRET in-cell target engagement, ERBB2
Type: binding
Conditions: HEK296T cells, 1 h incubation, average of duplicates
Result Type: IC50

-- ask GET /values?readout=IC50&item= C=CC(=O)Nc1cc(C)cc(-n2c(=O)ccc3cnc4ccc(-c5ccc(NS(C)(=O)=O)cc5)cc4c32)c1
-- reply > 3 µM

---

Molecular target: TEC (Homo sapiens, UniProt P42680)
Construct: host or cells: HEK296T (so in the source)
Sequence (P42680 whole entry): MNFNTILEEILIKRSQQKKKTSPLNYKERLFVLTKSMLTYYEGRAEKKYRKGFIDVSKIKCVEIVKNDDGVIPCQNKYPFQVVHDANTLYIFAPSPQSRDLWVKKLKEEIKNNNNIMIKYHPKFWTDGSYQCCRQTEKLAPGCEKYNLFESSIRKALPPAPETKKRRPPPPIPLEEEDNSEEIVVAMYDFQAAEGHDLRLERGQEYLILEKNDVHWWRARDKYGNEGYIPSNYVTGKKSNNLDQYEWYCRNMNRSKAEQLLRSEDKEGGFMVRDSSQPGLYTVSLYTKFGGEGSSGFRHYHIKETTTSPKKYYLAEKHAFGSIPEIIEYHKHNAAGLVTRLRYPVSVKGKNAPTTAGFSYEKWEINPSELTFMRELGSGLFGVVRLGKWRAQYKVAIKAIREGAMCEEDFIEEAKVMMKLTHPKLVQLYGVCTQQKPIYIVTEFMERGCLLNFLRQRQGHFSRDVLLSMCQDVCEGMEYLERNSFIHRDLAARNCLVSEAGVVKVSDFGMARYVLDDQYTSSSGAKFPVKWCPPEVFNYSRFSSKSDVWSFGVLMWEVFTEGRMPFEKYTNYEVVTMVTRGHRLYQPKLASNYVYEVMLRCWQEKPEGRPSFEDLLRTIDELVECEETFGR
Experiment: NanoBRET in-cell target engagement, TEC
Type: binding
Conditions: HEK296T cells, 1 h incubation, average of duplicates
Result Type: IC50 (nM)
# unit: nM | format: bare number

-- ask GET /values?readout=IC50&item= C=CC(=O)Nc1cc(C)cc(-n2c(=O)ccc3cnc4ccc(-c5ccc(NS(C)(=O)=O)cc5)cc4c32)c1 [JS25]
-- reply 220
